Quick reference for Improvement in pH responsiveness of inhibitory peptide relative to WT among some binders
# TARGET DESC: T1, thermostable variant of Streptomyces mobaraensis transglutaminase (Streptomyces mobaraensis, UniProt P81453 79-407)
# T1 sequence: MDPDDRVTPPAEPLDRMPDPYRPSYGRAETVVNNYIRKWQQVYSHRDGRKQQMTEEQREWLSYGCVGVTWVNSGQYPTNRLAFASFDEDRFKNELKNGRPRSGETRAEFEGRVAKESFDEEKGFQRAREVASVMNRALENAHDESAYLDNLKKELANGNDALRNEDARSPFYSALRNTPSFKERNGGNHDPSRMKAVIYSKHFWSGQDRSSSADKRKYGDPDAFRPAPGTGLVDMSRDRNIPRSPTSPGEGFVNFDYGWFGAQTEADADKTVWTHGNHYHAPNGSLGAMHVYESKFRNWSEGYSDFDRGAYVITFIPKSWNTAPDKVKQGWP
# EXPERIMENT DESCRIPTION: cell-based or functional assay

Sample answers from the record:
binder="MDNGAGEETKSYAETYRLTADDVANINALNESAPAASSAGPSFRAR [pro-peptide variant P46R]" measured_result="> 1.2 fold"
binder="MDNGAGEETKSYAETYRLTADAVANINALNESAPAASSAGPSFRAP [pro-peptide variant D22A]" measured_result="> 1.2 fold"
binder="MDNGAGEETKSYAYTYRLTADDVANINALNESAPAASSAGPSFRAP [pro-peptide variant E14Y]" measured_result="> 5 fold"
binder="MDNGAGENTKSYAETYRLTADDVANINALNESAPAASSAGPSFRAP [pro-peptide variant E8N]" measured_result="> 1.2 fold"
binder="MDNGAGEETKSYAETYRLTADDVANINALNESAPAASSAGPSFRAK [pro-peptide variant P46K]" measured_result="> 1.2 fold"

Here is the next item to consider.
Query: Could you share which Improvement in pH responsiveness of inhibitory peptide relative to WT value was measured for MDNGAGEETKSYAETYRLTADDVANINALNESAPAASSAGPSFRAQ [pro-peptide variant P46Q] ?
Reply: > 1.2 fold
